Reference source: the supplement of paper PMC7125110

B1: glmS ribozyme (parent)
chain: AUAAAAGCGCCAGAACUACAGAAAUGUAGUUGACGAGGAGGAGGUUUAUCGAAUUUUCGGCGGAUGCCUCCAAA

Variants of: B1
ASSAY_INFO: self-cleavage kobs at 10000 uM GlcN6P; higher = faster cleavage; RNA array
TEST_CONDITIONS: with glucosamine-6-phosphate
Variants at the floor of the assay were thinned out.
For each of the variants below, state its self-cleavage kobs at 10000 uM GlcN6P.
One number for each entry, in s⁻¹.

Here's what some known entries look like.
VARIANT_NAME	RECORDED_METRIC	DATA_VALUE
A53G G59A	self-cleavage kobs at 10000 uM GlcN6P	7e-05
G29A U47C	self-cleavage kobs at 10000 uM GlcN6P	0.000233
A12U A15U	self-cleavage kobs at 10000 uM GlcN6P	0.00986
C11A U45A	self-cleavage kobs at 10000 uM GlcN6P	0.000262
G32C A36U U69G C70A	self-cleavage kobs at 10000 uM GlcN6P	0.000103

Hi team, please reply with self-cleavage kobs at 10000 uM GlcN6P for each item in this list.
1. G41C A53G
2. U45A A53G U55G

Resp:
0.000438
0.0551

Kindly give each listed record's self-cleavage kobs at 10000 uM GlcN6P.
1. C16G U30G A39U
2. U56C
3. G32C A39U

Resp:
1. 0.000103
2. 0.00442
3. 3.58e-05

// each variant listed below needs its self-cleavage kobs at 10000 uM GlcN6P
1. A14G C16U
2. C34G G35U G38A C50A U69G
3. C11A A12U U45G U55A C70U
4. A53C U54C
5. G7A A14U C58A C68G
6. U54G A64C C67A C70U
7. G13U A14G U47C

Resp:
0.0726
0.000375
0.000245
0.000805
0.00011
4.58e-05
0.000208

List self-cleavage kobs at 10000 uM GlcN6P for every entry below, keeping the order given.
1. A14C U55G
2. C11U G32A A42G A53U
3. C11G C70G
4. G41U A53G

Resp:
1. 0.00435
2. 9.31e-05
3. 2.25e-05
4. 0.00153
